Source of measurements: patent US20110245335A1

procedure details: pKa of the acidic moiety (stated in design rationale, no method)
Format: physicochemical
condition notes: approximate values given in design rationale; no method described; read-out: pKa of the carboxylic moiety or its replacement
For each entry below, report its pKa value.

Answered examples (2):
structure smiles	value type	result
CC(=O)Nc1c(O)cccc1Oc1ccccc1C(=O)NO	pKa	~8
CC(=O)Nc1c(O)cc(O)cc1Oc1ccc(Cl)cc1S(=O)(=O)O	pKa	~1

Now, please, on to the next compound.
Recorded pKa (compound CC(=O)Nc1ccccc1Oc1cccc(O)c1C(=O)O ): ~3
